Entry source: patent US12421253B2

- system_tested: KRas^G13D (Homo sapiens, UniProt P01116, G13D)
- Sequence (P01116 1-169 isoform P01116-2 G13D): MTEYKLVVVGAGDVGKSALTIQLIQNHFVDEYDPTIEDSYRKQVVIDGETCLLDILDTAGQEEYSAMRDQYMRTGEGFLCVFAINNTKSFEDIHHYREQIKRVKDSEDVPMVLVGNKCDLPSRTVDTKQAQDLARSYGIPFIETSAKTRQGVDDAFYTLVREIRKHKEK
- assay_details: biochemical
property_name: IC50 (nM)

Illustrative cases are given below, each with its answer.
CCc1cccc2cccc(N3CCc4c(nc(OCC56CCCN5CCC6)nc4N4CCCC(c5nc(=O)[nH][nH]5)C4)C3)c12 (centres unmarked) [Example 104]
1800
CCc1cccc2cccc(N3CCc4c(nc(OCC56CCCN5CCC6)nc4NCc4nnc(CSC)[nH]4)C3)c12 [Example 161]
25200
CCc1cccc2cccc(N3CCc4c(nc(OCC56CCCN5CCC6)nc4NC4CCc5ncsc5C4)C3)c12 (centres unmarked) [Example 168]
21900
CCc1cccc2cccc(N3CCc4c(nc(OCC56CCCN5CCC6)nc4N4CC5CNC(=O)C5C4)C3)c12 (centres unmarked) [Example 52]
1150
CCc1cccc2cccc(N3CCc4c(nc(OCC56CCCN5CCC6)nc4N(C)CC(C)(C)O)C3)c12 [Example 113]
654

I. CCc1cccc2cccc(N3CCc4c(nc(OCC56CCCN5CCC6)nc4N4CCCC(N5CC(C)CS5(=O)=O)C4)C3)c12 (centres unmarked) [Example 83]
II. CCc1cccc2cccc(N3CCc4c(nc(OCC56CCCN5CCC6)nc4N4CCCC(c5ccn(C)n5)C4)C3)c12 (centres unmarked) [Example 100]
Exercise: Which shows the larger IC50 value: I or II ? Reply with the label of the item you choose.
Key: II
